Would you mind telling me the reported Kp at 3.75 h of each entry?
# EXPERIMENTAL_DETAILS: In vivo brain penetration measurement in rat (plasma and brain concentration, Kp"brain")
# ASSAY_CONTEXT: male, Sprague-Dawley, rat, brain/plasma, iv, 4 mg/kg, rat, 3.75 h i.v. infusion, 4 mg/kg; mean of 3 rats; read-out: Kp"brain", Mean
API note: the answer field is a bare number with no unit suffix.

The molecule identified as CC12CC3CC(C)(C1)CC([N+](C)(C)C)(C3)C2 registered its Kp at 3.75 h at 0.091

The molecule identified as CC12CC3CC(C)(C1)CC(N)(C3)C2 [Memantine, memantine] registered its Kp at 3.75 h at 31.6

====

# EXPERIMENTAL_DETAILS: In vivo brain penetration measurement in rat (plasma and brain concentration, Kp"brain")
# ASSAY_CONTEXT: male, Sprague-Dawley, rat, brain, iv, 4 mg/kg, male Sprague-Dawley rat, end of 3.75 h constant-rate i.v. infusion, 4 mg/kg; individual rats; read-out: Brain concentration
VALUE_KIND: concentration at 3.75 h
Report the figure along with its unit, number first.

The compound identified as CC12CC3CC(C)(C1)CC(N)(C3)C2 [Memantine, memantine] registered its concentration at 3.75 h at 3340 ng/g

====

Would you mind telling me the reported concentration at 3.75 h of each entry?
# EXPERIMENTAL_DETAILS: In vivo brain penetration measurement in rat (plasma and brain concentration, Kp"brain")
# ASSAY_CONTEXT: male, Sprague-Dawley, rat, brain, iv, 4 mg/kg, male Sprague-Dawley rat, end of 3.75 h constant-rate i.v. infusion, 4 mg/kg; mean of 3 rats; read-out: Brain concentration, Mean
Number in ng/g, nothing else.

The molecule identified as CC12CC3CC(C)(C1)CC(N)(C3)C2 [Memantine, memantine] registered its concentration at 3.75 h at 3180

The molecule identified as CC12CC3CC(C)(C1)CC([N+](C)(C)C)(C3)C2 registered its concentration at 3.75 h at 2.5

====

# EXPERIMENTAL_DETAILS: In vivo brain penetration measurement in rat (plasma and brain concentration, Kp"brain")
# ASSAY_CONTEXT: male, Sprague-Dawley, rat, brain/plasma, iv, 4 mg/kg, rat, 3.75 h i.v. infusion, 4 mg/kg; individual rats; read-out: Kp"brain" (total brain/plasma concentration ratio at steady state)
VALUE_KIND: Kp at 3.75 h

The molecule identified as CC12CC3CC(C)(C1)CC(N)(C3)C2 [Memantine, memantine] registered its Kp at 3.75 h at 27.1

====

# EXPERIMENTAL_DETAILS: In vivo brain penetration measurement in rat (plasma and brain concentration, Kp"brain")
# ASSAY_CONTEXT: male, Sprague-Dawley, rat, plasma, iv, 4 mg/kg, male Sprague-Dawley rat, end of 3.75 h constant-rate i.v. infusion, 4 mg/kg; mean of 3 rats; read-out: Plasma concentration, Mean
VALUE_KIND: concentration at 3.75 h (ng/mL)
Number in ng/mL, nothing else.

The compound identified as CC12CC3CC(C)(C1)CC([N+](C)(C)C)(C3)C2 registered its concentration at 3.75 h at 27.5

The compound identified as CC12CC3CC(C)(C1)CC(N)(C3)C2 [Memantine, memantine] registered its concentration at 3.75 h at 102

====

# EXPERIMENTAL_DETAILS: In vivo brain penetration measurement in rat (plasma and brain concentration, Kp"brain")
# ASSAY_CONTEXT: male, Sprague-Dawley, rat, plasma, iv, 4 mg/kg, male Sprague-Dawley rat, end of 3.75 h constant-rate i.v. infusion, 4 mg/kg; individual rats; read-out: Plasma concentration
Would you mind telling me the reported concentration at 3.75 h of each entry?
Number in ng/mL, nothing else.

The compound identified as CC12CC3CC(C)(C1)CC([N+](C)(C)C)(C3)C2 registered its concentration at 3.75 h at 34.8

The compound identified as CC12CC3CC(C)(C1)CC(N)(C3)C2 [Memantine, memantine] registered its concentration at 3.75 h at 123

====

# System: NMDAR
# EXPERIMENTAL_DETAILS: NMDAR blocking activity, whole-cell voltage clamp (patch-clamp) recordings from rat hippocampal neurons
# Format: cell-based
# ASSAY_CONTEXT: read-out: IC50 (NMDAR antagonist activity)
VALUE_KIND: IC50 (µM)
Number in µM, nothing else.

The compound identified as CC12CC3CC(C)(C1)CC(N)(C3)C2 [Memantine, memantine] registered its IC50 at 1
